Molecular target: Recombinant human HDAC1 (Homo sapiens, UniProt Q13547)
Construct: FLAG (C); made in house
Sequence (Q13547 whole entry): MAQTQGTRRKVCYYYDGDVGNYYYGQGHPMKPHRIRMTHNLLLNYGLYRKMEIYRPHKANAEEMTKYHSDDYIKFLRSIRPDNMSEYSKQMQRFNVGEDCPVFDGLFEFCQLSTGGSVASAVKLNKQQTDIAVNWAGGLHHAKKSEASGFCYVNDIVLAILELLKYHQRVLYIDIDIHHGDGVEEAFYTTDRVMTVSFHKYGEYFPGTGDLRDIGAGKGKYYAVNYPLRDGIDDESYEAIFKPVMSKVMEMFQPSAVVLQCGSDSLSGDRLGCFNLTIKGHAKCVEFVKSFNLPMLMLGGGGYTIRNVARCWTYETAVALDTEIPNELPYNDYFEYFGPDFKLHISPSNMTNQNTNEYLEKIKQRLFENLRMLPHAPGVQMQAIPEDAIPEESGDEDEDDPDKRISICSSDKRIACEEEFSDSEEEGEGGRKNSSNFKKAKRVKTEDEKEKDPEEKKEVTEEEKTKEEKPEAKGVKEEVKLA
Assay: Human HDAC enzyme inhibitor Fluor-de-Lys assay, HDAC1
Assay type: biochemical
measured.attribute: IC50 (nM)
Answers are plain numbers, in nM.

// batch mode: one IC50 value per listed entry
1. CCN1CCC2(CC1)C[C@@H]2C(=O)N[C@@H](CCCCCC(=O)CC1CC1)c1ncc(-c2ccc(F)cc2)[nH]1
2. CCC(=O)CCCCC[C@H](NC(=O)C1CC2(C1)CN(C)C2)c1ncc(-c2ccc3nn(C)cc3c2)[nH]1

RESULT:
7.18
2.29

// batch mode: one IC50 value per listed entry
1. CCC(=O)CCCCC[C@H](NC(=O)C1CC12CCN(C)C(C)(C)C2)c1ncc(-c2ccc3nc(C)ccc3c2)[nH]1 (single isomer, unassigned) [Compound 132]
2. CCC(=O)CCCCC[C@H](NC(=O)[C@H]1CC12CCN(CC)CC2)c1ncc(-c2cc3nn(C)cc3cc2OC)o1

RESULT:
[2.33, 7.33]

# credit: patent US12590099B2
